For each record, write down the corresponding pEC50.
# TARGET OR SYSTEM: CXCR7 (Homo sapiens, UniProt P25106)
# Construct: host or cells: CHO-K1 (PathHunter CHO-K1 CXCR7 b-arrestin cell line, stably transfected)
# Sequence (P25106 whole entry): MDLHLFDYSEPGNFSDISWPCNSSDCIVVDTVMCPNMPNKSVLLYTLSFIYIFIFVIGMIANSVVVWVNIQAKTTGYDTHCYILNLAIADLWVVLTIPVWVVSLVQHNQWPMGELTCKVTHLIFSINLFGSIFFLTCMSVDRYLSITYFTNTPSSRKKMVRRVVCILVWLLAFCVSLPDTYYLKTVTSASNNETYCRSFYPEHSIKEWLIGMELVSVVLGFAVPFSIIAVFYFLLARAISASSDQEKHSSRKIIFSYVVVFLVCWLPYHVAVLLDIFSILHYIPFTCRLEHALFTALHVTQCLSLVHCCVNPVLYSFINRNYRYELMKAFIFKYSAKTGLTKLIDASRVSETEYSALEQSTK
# Sequence (P32121 whole entry partner): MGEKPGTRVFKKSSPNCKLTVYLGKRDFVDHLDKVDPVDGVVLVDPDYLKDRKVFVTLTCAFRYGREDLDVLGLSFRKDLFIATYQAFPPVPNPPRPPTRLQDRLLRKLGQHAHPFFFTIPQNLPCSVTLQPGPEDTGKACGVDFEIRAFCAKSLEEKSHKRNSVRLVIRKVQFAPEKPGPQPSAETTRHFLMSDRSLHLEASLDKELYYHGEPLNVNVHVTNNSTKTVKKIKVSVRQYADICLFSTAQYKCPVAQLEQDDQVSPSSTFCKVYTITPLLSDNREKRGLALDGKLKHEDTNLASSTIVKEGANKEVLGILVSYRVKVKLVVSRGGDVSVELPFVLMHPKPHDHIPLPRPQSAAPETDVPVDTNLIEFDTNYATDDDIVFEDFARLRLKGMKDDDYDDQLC
# ASSAY PROCEDURE: PathHunter CHO-K1 CXCR7 b-arrestin recruitment assay (CXCR7 agonistic activity)
# Type: cell-based
# CONDITION SUMMARY: PathHunter CHO-K1 CXCR7 b-arrestin cell line
On this scale, pEC50 is minus log10 of a concentration expressed in M (mol/L).

Request: Sample CN(C)CCN(Cc1ccccc1Br)C(=O)CNc1cccc2c1CCN(CC1CC1)C2 — what was its pEC50?
Response: 8.52

Request: Returns the measured pEC50 for the input compound. Input: CN(C)CCN(Cc1ncccc1Br)C(=O)CNc1cccc2c1CN(C(=O)[C@H]1C[C@H]1F)CC2 (relative stereo)
Response: 7.07

Request: # query: pEC50 of entry CCN1CCc2cccc(NCC(=O)N(CCN(C)C)Cc3cccc(C(F)(F)F)n3)c2C1
Response: 7.52

Request: For C#CCN1CCc2c(cccc2NCC(=O)N(CCN(C)C)Cc2ccccc2C(F)(F)F)C1 , what is its reported pEC50?
Response: 7.55

Request: Requested field: pEC50. Item: CN(C)CCN(Cc1ccccc1C(F)(F)F)C(=O)CNc1cccc2c1CN(C(=O)c1ccccc1)CC2
Response: 8.40

Request: Requested field: pEC50. Item: Cc1cccc(CN(CCN(C)C)C(=O)CNc2cccc3c2CCN(CC2CC2)C3)n1
Response: 8.30

Request: Which pEC50 is listed for CNCCN(Cc1ccccc1C(F)(F)F)C(=O)CNc1cccc2c1CCN(C(=O)NC(C)C)C2 ?
Response: 7.22

Request: Can you look up the measured pEC50 of CNCCN(Cc1ncccc1C(F)(F)F)C(=O)CNc1cccc2c1CCN(C(=O)C(C)(C)C)C2 for me?
Response: 6.75

Request: Which pEC50 is listed for CN(C)CCN(Cc1ccccc1C(F)(F)F)C(=O)CNc1cccc2c1CCN(CC1(C)COC1)C2 ?
Response: 7.59

Request: Could you tell me which pEC50 is on file for CN(C)CCN(Cc1ncccc1C(F)(F)F)C(=O)CNc1cccc2c1CCN(C1CCOC1)C2 (racemic) ?
Response: 7.46

Request: What does the record list as pEC50 for CCN(CCN(Cc1ccccc1C(F)(F)F)C(=O)CNc1cccc2c1CCN(CC1CC1)C2)CC1(C)COC1 ?
Response: 8.22
